Please provide measured amyloid nucleation score for the entries that follow.
- methodNotes: amyloid nucleation score (Sup35N fusion, yeast selection) (log enrichment); library NNK1; higher = more nucleation; inactive = no reads after selection;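 also: zero at mode of non-aggregating sequences after 7 days selection at 30°C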
Please reply with the number alone, leaving off any unit.

Q. Report amyloid nucleation score for LCQVTG please.
A. 0.391

Q. amyloid nucleation score for LGQLFHGGCD ?
A. 0.3

Q. Entry under review: KTCYTVFSRPYENWS . Reported amyloid nucleation score?
A. 0.625

Q. amyloid nucleation score lookup needed for SKSCFFKQYLTSIIYLHTKK , thanks.
A. 0.418

Q. Look up amyloid nucleation score for this substance: ISECDICERR
A. -0.236

Q. Suppose we examine the substance RSNNSFCIPLSFMCYVYQAT ; what amyloid nucleation score value has been reported?
A. -0.172

Q. For the substance shown here, TIAGHYYLWS , give the reported amyloid nucleation score.
A. -0.291

Q. Which value of amyloid nucleation score has been reported for VNSLVVLF in the records?
A. 1.84

Q. Consider the substance NDHNNLWVNFVGT and give its measured amyloid nucleation score.
A. 0.575

Q. Look up amyloid nucleation score for this substance: YRSFAYEGSSRIGG
A. -0.022

Q. Dear colleague, I am looking for the recorded amyloid nucleation score of the following substance: VPNFDQSNGQCIGDTVLMWC
A. 1.74

Q. Requested field: amyloid nucleation score. Item: FIYLENAS
A. 0.532

Q. // amyloid nucleation score lookup, key: LLCSKCGFTDQFQS
A. -1.09

Q. If you can, please state the reported amyloid nucleation score value of VSQHSERQGAVCNRCFIVWR .
A. 6.1

Q. Entry CFPTWYLLLDCWVQFPAHTK : reported amyloid nucleation score = ?
A. 2.56

Q. // query amyloid nucleation score value for entry GMCSEGTFKRQLISMHTCRT
A. 0.247

Q. Please look up its amyloid nucleation score: IVAVDFGLFRMRTIPRAAVS
A. -0.144

Q. May I ask what amyloid nucleation score has been recorded for LILHSNSGFNGYWVSQWNTM ?
A. -0.304

Q. Request the reported amyloid nucleation score associated with FTVVLYLSVVLKFKDAGEEG
A. 4.09

Q. Which measured amyloid nucleation score value corresponds to YIWAFLVGFVLTHYCSPHPD ?
A. -1.07

Q. Find the recorded amyloid nucleation score belonging to PNCDAYWVNWFKLRCLSHLF and report it.
A. -0.489

Q. Request the reported amyloid nucleation score associated with RLSSPVSI
A. 0.028

Q. // query amyloid nucleation score value for entry WLPMPSV
A. 0.411

Q. What does the data say about its amyloid nucleation score? Entry: DWSRQFYMFVNVKARLFRGT
A. -0.05

Q. Please give the measured amyloid nucleation score for this substance: AESSLLSLIVFNTNYFEAGQ
A. 6.75

Q. Would you mind telling me what amyloid nucleation score value was observed for KLYPFL ?
A. 0.565

Q. Need amyloid nucleation score of IPCDFDRISSSVFAKCNYSI , thanks.
A. -0.455

Q. // query amyloid nucleation score value for entry SFNNMANMAYYRVRGVLVL
A. -0.438

Q. For the substance NCLNAMVWSLLMLTDHLAPQ , what amyloid nucleation score is on record?
A. -0.157

Q. Reported amyloid nucleation score, substance NQTSLAILSRSSQGHGTKVY : ____
A. 0.623

Q. Tell me the measured amyloid nucleation score of SIRFMLYVRVKR , please.
A. -0.234

Q. Which amyloid nucleation score reading was recorded for the substance QSSSLHKHSFTHVVSQNEGG ?
A. 0.543

Q. Quick one: amyloid nucleation score of YMGHDC ?
A. 0.011

Q. Give its amyloid nucleation score value. Item: WAICDSLLVLVSRKGSASSP
A. -1.56

Q. Look up amyloid nucleation score: RSLCHAQRFGWMC
A. -1.7

Q. Item under review: SWYGVYPFEIGFESGLESTL . Reported amyloid nucleation score?
A. -0.429

Q. Tell me the measured amyloid nucleation score of CFFRTDGLDTPYGAYLVRSF , please.
A. 2.31

Q. Recorded amyloid nucleation score of IYFHLGGCI , please.
A. -0.376

Q. Any idea what amyloid nucleation score was measured for YLLPEPKQCVSPE ?
A. 0.625

Q. amyloid nucleation score lookup needed for GTGSSAVDVFSGLMCGTDVL , thanks.
A. -0.145

Q. Quick check: amyloid nucleation score of HLCFIADGQLRTVVVELFPI ?
A. 0.576

Q. Record request: amyloid nucleation score value, item ACWFMCFYRFPAAWY
A. 0.079

Q. What does the record list as amyloid nucleation score for HFCKYSQNIELRQALGCYFW ?
A. 6.16

Q. Item NPVRMMRNRLVLGKNCAPRG has what recorded amyloid nucleation score?
A. -0.024

Q. What amyloid nucleation score value was documented for this substance, DIWDTAAAPGCRCRGNS ?
A. -0.363

Q. Which amyloid nucleation score value belongs to VMVIMDS ?
A. 2.11

Q. Which value of amyloid nucleation score has been reported for SLSKLAICMWSYIFNMSYFC in the records?
A. -0.139

Q. Could you tell me which amyloid nucleation score is on file for WWYYNRRWLVTCKSVYGLGM ?
A. -0.34

Q. Need amyloid nucleation score, item GKLVVFNFL
A. 8.48

Q. Which amyloid nucleation score is reported for this substance? GDYYACGPTCGSRAAFPGVG
A. -0.383

Q. Could you share which amyloid nucleation score value was measured for VLDFLYILCVTLANDFLKGW ?
A. 0.961

Q. Query: amyloid nucleation score; subject: RQSWPGYFVCSYQCVRMGNR
A. -0.084

Q. Bench note: what amyloid nucleation score did SLVSYSVHANFCVFIWTNGS show?
A. 1.25

Q. Which amyloid nucleation score value is on record for LWATNFCNTGFVYSLCIFSR ?
A. 3.89

Q. Fill in the blank: the reported amyloid nucleation score of AAIAWVLN is ____.
A. 0.112

Q. Please give the measured amyloid nucleation score for this substance: MYINGWYWTDGFIVNYQWMG
A. 0.626

Q. Data request, read-out amyloid nucleation score, for SMSHGWGLLDFLWADCWWPK
A. -0.031

Q. Name the reported amyloid nucleation score value associated with the substance FDSRRGEGALMSNDSSCERG
A. -0.185

Q. GET /values?readout=amyloid nucleation score&item= HEGPCKRNCTGVLLRSARRH
A. -0.049

Q. Value lookup for amyloid nucleation score; key = ALKHPML
A. -0.815

Q. Could you share which amyloid nucleation score value was measured for SIGVGCGEVCFLYRSEPIFV ?
A. -0.04

Q. Consider the substance FVVAVGLIVFD and give its measured amyloid nucleation score.
A. 0.027

Q. What does the data say about its amyloid nucleation score? Entry: YHIMGFSSYGGVVRWMSS
A. -0.312

Q. Given the entry DGTVGSYCMIFWELYRDNFF , report its measured amyloid nucleation score.
A. -0.761
